ASSAY_TEXT: qHTS Assay for Identifying Gametocytocidal Compounds (AID 743244); note: potency is the fitted concentration of half-maximal effect
CONDITION_DETAILS: P. falciparum 3D7 stage III-V gametocytes, alamarBlue, 72 h
Results filed as inconclusive are left out. Calls of active or inactive are those of the source. Calls come from the whole dose curve; as a rule, active = well fitted curve in the direction sought with a large enough effect; inconclusive = small, poorly fitted or top-dose-only effect, or another doubt; inactive = no such curve, though single readings can be large or run the other way.
READOUT_TYPE: Potency

Sample answers from the record:
COMPOUND: C#Cc1cccc(Nc2ncnc3cc(OC)c(OCCCCCCC(=O)NO)cc23)c1
TEST_RESULT: 1.71 µM (active)
--
COMPOUND: Cc1cc(Nc2cc(N3CCN(C)CC3)nc(C=Cc3ccccc3)n2)n[nH]1
TEST_RESULT: 8.33 µM (active)
--
COMPOUND: CC(C)(C)OC(=O)Nc1ccc(-c2cc(C(=O)NCCCCCCC(=O)NO)no2)cc1
TEST_RESULT: 9.35 µM (active)
--
COMPOUND: CC(C)(C)c1cnc(CSc2cnc(NC(=O)C3CCNCC3)s2)o1
TEST_RESULT: 4.18 µM (active)
--
COMPOUND: C[C@@H](Oc1cc(-n2cnc3ccc(CN4CCN(C)CC4)cc32)sc1C(N)=O)c1ccccc1C(F)(F)F
TEST_RESULT: 18.7 µM (active)

Please give Potency, item by item, for the list that follows.
1. CN1CCC(CNc2ccc3ncc(-c4cccc(OC(F)(F)F)c4)n3n2)CC1
2. CN(C)CCCN=c1c2ccccc2n(C)c2[nH]c(=O)n(C)c(=O)c12
3. COc1cc2ncnc(Nc3ccc(F)c(Cl)c3)c2cc1NC(=O)C=CCN1CCCCC1
4. COc1cc2c(Oc3ccc(NC(=O)C4(C(=O)Nc5ccc(F)cc5)CC4)cc3F)ccnc2cc1OCCCN1CCOCC1
5. CC(C)C[C@H](NC(=O)CNC(=O)c1cc(Cl)ccc1Cl)B(O)O

Result string:
["9.35 µM (active)", "14.8 µM (active)", "11.8 µM (active)", "18.7 µM (active)", "18.7 µM (active)"]

* * *

ASSAY_TEXT: Quantitative High-Throughput drug screen in 47 multiple myeloma cell lines against the NCATS MIPE library collection: ARP1_JJKsccF8 cell viability assay (AID 1918928; note: potency is the fitted concentration of half-maximal effect; nearly all actives have a fitted effect of over 40% in size)
CONDITION_DETAILS: ARP1 myeloma cells viability, CellTiter-Glo ATP, 48 h; series mostly up to 45.8 µM
Records with an inconclusive call do not appear. The source made the active and inactive calls. The call rests on the fitted dose curve; in most records, active means well fitted cell-killing curve with a large enough effect; inconclusive means small, poorly fitted or top-dose-only effect, or effect the other way; inactive means no such curve, though single readings can be large or run the other way.
READOUT_TYPE: Potency

For orientation, consider the following solved cases.
COMPOUND: COc1cc(C)c(Sc2cnc(NC(=O)c3ccc(CNC(C)C(C)C)cc3)s2)cc1C(=O)N1CCN(C(C)=O)CC1 (stereo not given)
READOUT_TYPE: Potency
TEST_RESULT: 16600 nM (active)
--
COMPOUND: Nc1cc(C(F)(F)F)c(-c2cc(N3CCOCC3)nc(N3CCOCC3)n2)cn1
READOUT_TYPE: Potency
TEST_RESULT: 209 nM (active)
--
COMPOUND: Cn1cc(-c2ccncc2)c(-c2ccc(OCc3ccc4ccccc4n3)cc2)n1
READOUT_TYPE: Potency
TEST_RESULT: 4690 nM (active)
--
COMPOUND: COc1cccc2nc(-c3cccs3)nc(NN3C(=O)C=C(C)C3=O)c12
READOUT_TYPE: Potency
TEST_RESULT: 41.8 nM (active)

Turning now to a further compound:
Query string: Tell me Potency reported for C[C@@H](Oc1cc(-n2cnc3ccc(CN4CCN(C)CC4)cc32)sc1C(N)=O)c1ccccc1C(F)(F)F
Result string: 105 nM (active)

* * *

ASSAY_TEXT: Quantitative High-Throughput drug screen in 47 multiple myeloma cell lines against the NCATS MIPE library collection: KMS28BM_JCRB cell viability assay (AID 1919874); note: potency is the fitted concentration of half-maximal effect; nearly all actives have a fitted effect of over 35% in size
CONDITION_DETAILS: CellTiter-Glo ATP, 48 h; series mostly up to 45.8 µM
Inconclusive results are not listed. The source made the active and inactive calls. Calls come from the whole dose curve; as a rule, active = well fitted cell-killing curve with a large enough effect; inconclusive = small, poorly fitted or top-dose-only effect, or effect the other way; inactive = no such curve, though single readings can be large or run the other way.
Hello, when you answer, please use one of the following outcomes: T (active), F (inactive)

MOLECULE: CC(C)CC(=O)Nc1n[nH]c2c1CN(C(=O)C1CCN(C)CC1)C2(C)C
LABEL_VALUE: T

Query string: Call for entry CN(c1ncccc1CNc1nc(Nc2ccc3c(c2)CC(=O)N3)ncc1C(F)(F)F)S(C)(=O)=O :
Result string: T

Query string: Status in this test for CC(C)c1ccc(Cn2ccc3c4c(N)nc(NC5CC5)nc4ccc32)cc1 ?
Result string: T

* * *

EXPERIMENTAL_TARGET: Luciferin 4-monooxygenase (Photinus pyralis)
ASSAY_TEXT: Primary firefly luciferase (FLuc) qHTS assay for identification of artifact compounds. (AID 1845220); note: nearly all actives have a fitted effect of over 60% in size
CONDITION_DETAILS: purified firefly luciferase, luminescence, 5 min; series mostly up to 54.1 µM
Activity calls are given as the source filed them. Calls come from the whole dose curve; as a rule, active = well fitted inhibition curve with a large enough effect; inconclusive = small, poorly fitted or top-dose-only effect; inactive = flat fitted curve, though single readings scatter.
// allowed return values: Y = active, N = inactive

Take a look at these entries with their results.
COMPOUND: Cn1c(CNc2ccc(C(=N)N)cc2)nc2cc(C(=O)N(CCC(=O)O)c3ccccn3)ccc21
EXPERIMENTAL_TARGET: Luciferin 4-monooxygenase (Photinus pyralis)
LABEL_VALUE: N
--
COMPOUND: COc1ccc2c(OCc3nnc4ccc(-c5ccccc5)nn34)ccnc2c1
EXPERIMENTAL_TARGET: Luciferin 4-monooxygenase (Photinus pyralis)
LABEL_VALUE: N
--
COMPOUND: CC(=O)Nc1sc2c(c1-c1nc3ccccc3s1)CNC2
EXPERIMENTAL_TARGET: Luciferin 4-monooxygenase (Photinus pyralis)
LABEL_VALUE: N
--
COMPOUND: CNC(=O)c1ccc(-c2cnc3ncc(Cc4ccc5ncccc5c4)n3n2)cc1F
EXPERIMENTAL_TARGET: Luciferin 4-monooxygenase (Photinus pyralis)
LABEL_VALUE: N
--
COMPOUND: O=C(c1ccc(Nc2nccc(-c3cc4ccccc4s3)n2)cc1)N1CCC(N2CCCC2)CC1
EXPERIMENTAL_TARGET: Luciferin 4-monooxygenase (Photinus pyralis)
LABEL_VALUE: N

Query string: Recorded call for C1Cc2[nH]nc(-c3nn[nH]n3)c2C1 ?
Result string: N

Query string: Field: outcome | Entry: Nc1ccccc1NC(=O)c1ccc(CNc2nccc(-c3cccnc3)n2)cc1
Result string: N

Query string: Which outcome was assigned to CC(C)CC(=O)Nc1n[nH]c2c1CN(C(=O)C1CCN(C)CC1)C2(C)C in this test?
Result string: N

Query string: // param item: C[C@@H]1COC(Nc2ccc3ncnc(Nc4ccc(OCc5nccs5)c(Cl)c4)c3c2)=N1 ; yields the recorded call
Result string: Y

Query string: Query: recorded result category for c1nc2nc(Nc3ccc(N4CCOCC4)cc3)nc(NC3CCCCC3)c2[nH]1 in this test
Result string: N

Query string: Assay result, entry CCc1cc2c(cc1N1CCC(N3CCOCC3)CC1)C(C)(C)c1[nH]c3cc(C#N)ccc3c1C2=O — outcome?
Result string: N

* * *

ASSAY_TEXT: Quantitative High-Throughput drug screen in 47 multiple myeloma cell lines against the NCATS MIPE library collection: OCIMY7_PLB cell viability assay (AID 1918987); note: nearly all actives have a fitted effect of over 65% in size
CONDITION_DETAILS: OCI-MY7 myeloma viability, CellTiter-Glo ATP, 48 h; series mostly up to 45.8 µM
Excerpt: PI: Beverly A. Mock Ph.D. Laboratory of Cancer Biology and Genetics, Center for Cancer Research, National Cancer Institute, National Institute of Health, Bethesda, Maryland […] 5; Detector; 425V; Luminescence; Viewlux PerkinElmer. […] 1. […] Briefly, the corresponding myeloma cell lines were screened in 1,536-well plates with 500 cells, 5-uL per well for inhibition of cell viability (assessed by measuring ATP levels with CellTiterGlo). […]
Inconclusive results are not listed. Calls of active or inactive are those of the source. Calls follow the shape of the dose curve; as a rule, active = well fitted cell-killing curve with a large enough effect; inconclusive = small, poorly fitted or top-dose-only effect, or effect the other way; inactive = no such curve, though single readings can be large or run the other way.
I would appreciate it if you answered using one of these outcomes: TRUE (active), FALSE (inactive)

COMPOUND: O=C(Cc1ccc(-c2ccc(OCCN3CCOCC3)cc2)cn1)NCc1ccccc1
LABEL_VALUE: TRUE
--
COMPOUND: COc1cc2c(Nc3ccc(NC(=O)c4ccccc4)cc3)ncnc2cc1OCCCN1CCOCC1
LABEL_VALUE: TRUE

Query string: Hi, do you know how O=C(Nc1cn[nH]c1-c1nc2ccc(CN3CCOCC3)cc2[nH]1)NC1CC1 came out in this test?
Result string: TRUE

Query string: Query: recorded result category for Cc1cnc(Nc2ccc(F)cc2Cl)nc1-c1c[nH]c(C(=O)N[C@H](CO)c2cccc(Cl)c2)c1 in this test
Result string: TRUE

Query string: Could you check what this test reported for N#CCNC(=O)c1ccc(-c2ccnc(Nc3ccc(N4CCOCC4)cc3)n2)cc1 ?
Result string: TRUE

Query string: Field: outcome | Entry: CCC[C@H](NC(=O)C(C#N)=Cc1cccc(Br)n1)c1ccccc1
Result string: TRUE

Query string: Hello, I am checking results. What call was entered for CC[C@H](CO)Nc1nc(NCc2ccccc2)c2ncn(C(C)C)c2n1 ?
Result string: TRUE

Query string: Hello, I am checking results. What call was entered for O=C(O)C1(Cc2cccc(Nc3nccs3)n2)CCC(Oc2cccc(Cl)c2F)CC1 (stereo not given) ?
Result string: TRUE

Query string: Name the outcome recorded for COc1cccc2nc(-c3cccs3)nc(NN3C(=O)C=C(C)C3=O)c12 in the assay.
Result string: TRUE

Query string: What is the recorded call for this compound in the test? C=CC(=O)Nc1cccc(Oc2nc(Nc3ccc(N4CCN(C)CC4)cc3OC)ncc2Cl)c1
Result string: TRUE

Query string: I would be grateful if you could indicate the recorded call for CNC(=O)CN1CCC(Oc2cc3c(Nc4cccc(Cl)c4F)ncnc3cc2OC)CC1 .
Result string: TRUE

Query string: Record lookup: outcome of this test for Nc1ccccc1NC(=O)c1ccc(CNc2nccc(-c3cccnc3)n2)cc1 ?
Result string: TRUE

Query string: Field: outcome | Entry: O=C(CCCCCCNC(=O)c1cnc(N(c2ccccc2)c2ccccc2)nc1)NO
Result string: TRUE

Query string: Answer briefly: the call reported for Nc1ncnc2c1c(-c1cccc(OCc3ccccc3)c1)cn2C1CC(CN2CCCC2)C1 (stereo not given) in this assay.
Result string: TRUE

Query string: Outcome? CN(C)Cc1c(C(=O)NCCOc2ccc(C(=O)NO)cc2)oc2ccccc12
Result string: TRUE

Query string: Given C[C@]1(CO)CN(c2cc(C(=O)Nc3ccc4c(c3)-c3c(c(C(N)=O)nn3-c3ccc(F)cc3)CC4)c(Cl)cn2)C[C@@]1(C)CO , state the outcome it received in this test.
Result string: TRUE

Query string: Look up the recorded call for Cc1[nH]c2ccccc2c1CCNCc1ccc(C=CC(=O)NO)cc1 in this test.
Result string: TRUE

Query string: What call does the record list for O=C(c1cncc(Br)c1)N1CCC(N2CCCC2)CC1 ?
Result string: FALSE

Query string: Assay outcome for CC(C)c1ccccc1Cc1cc(C(=O)Nc2ccc(S(=O)(=O)c3ccccc3C(C)(C)C)cc2)c(O)c(O)c1O : what was it?
Result string: TRUE

Query string: # fetch the recorded call for CNC(=O)c1ccc(N2C(=S)N(c3cnc(C#N)c(C(F)(F)F)c3)C(=O)C23CCC3)cc1F here
Result string: TRUE
